condition_description: rat, in vivo, iv, 0.5 mg/kg
Description: Unbound clearance in rat at 0.5 mg/kg, iv
CL free: recorded values
Kindly answer with a numeric value in mL/min/kg, unit omitted.

Consider the following illustrative entries.
[
  {
    "chemical_smiles": "CNC(=O)N(c1ccc(S(=O)(=O)Nc2ccon2)cn1)c1cc(Cl)c(-c2cc(F)c(F)c(F)c2)cc1OC",
    "unit": "mL/min/kg",
    "result": 4770
  },
  {
    "chemical_smiles": "CNC(=O)N(c1ccc(S(=O)(=O)Nc2ncccn2)cn1)c1cc(F)c(-c2ccc(F)c(OC(F)(F)F)c2)cc1OC",
    "unit": "mL/min/kg",
    "result": 733
  }
]

QUERY: Find the recorded CL free belonging to COc1cc(-c2ccc(Cl)c(C#N)c2)c(F)cc1-n1c(=O)ccc2cc(S(=O)(=O)Nc3ccon3)ccc21 and report it.
RESULT: 10100

QUERY: For COc1cc(-c2ccc(Cl)c(C)c2)ccc1-n1c(=O)ccc2cc(S(=O)(=O)Nc3ccon3)ccc21 , what is its reported CL free?
RESULT: 2200

QUERY: Give its CL free value. Item: CNC(=O)N(c1ccc(S(=O)(=O)Nc2ncccn2)cn1)c1cc(F)c(-c2ccc(F)c(C(F)(F)F)c2)cc1OC
RESULT: 817

QUERY: # get_value(readout='CL free', item= CNC(=O)N(c1ccc(S(=O)(=O)Nc2cccnn2)cn1)c1cc(F)c(-c2ccc(F)c(OC(F)(F)F)c2)cc1OC )
RESULT: 1150

QUERY: Quick one: CL free of CNC(=O)N(c1ccc(S(=O)(=O)Nc2ccon2)cc1)c1ccc(-c2ccc(Cl)c(C)c2)cc1OC ?
RESULT: 3000
